experiment description: Toxicity liver stage against HepG2, at 10uM
Format: cell-based
Design: test concentration 10 uM, cell line HepG2-A16-CD81EGFP
condition info: human, HepG2-A16-CD81EGFP cells; read-out: INHIBITION
value kind: cytotoxicity at 10 µM (%)

[[record]]
compound = "COC(=O)c1cccc(C(=O)N2CCN(c3ccccc3F)CC2)n1"
number = -10.9

[[record]]
compound = "CC(C)Cc1noc(C2CCN(C(=O)c3cccs3)CC2)n1"
number = 9.81

[[record]]
compound = "Cc1cccc2c1OCCC2NCc1c(C(C)C)nn(C)c1N(C)C (stereo unspecified)"
number = 0.423

[[record]]
compound = "O=C(NCC(O)COc1cccc(F)c1)C1(c2ccc(F)cc2)CC1 (stereo unspecified)"
number = 0.884

[[record]]
compound = "NC(=O)C(CNC(=O)COCC(F)(F)F)Cc1ccc(F)cc1 (stereo unspecified)"
number = -5.36

[[record]]
compound = "O=C(c1n[nH]c2c1CCC2)N1CCCC1c1nc(-c2ccccc2)no1 (stereo unspecified)"
number = 6.43

[[record]]
compound = "COc1cccc(C2CC(=O)Nc3nc(N4CCOCC4)sc32)c1OC (stereo unspecified)"
number = -3.26

[[record]]
compound = "CN(C)C(=O)c1cc2ncc(C(=O)NC3CCCC3)cc2n1C"
number = -2.63

[[record]]
compound = "CCS(=O)(=O)N1Cc2nccn2CC(COc2cccnc2)C1 (stereo unspecified)"
number = -2.34

[[record]]
compound = "CCc1nc(CN(C)CC2CCN(CC(C)O)CC2)no1 (stereo unspecified)"
number = -10.3

[[record]]
compound = "Cc1ccc2cc(C(=O)N3CCCN(C)CC3)ccc2n1"
number = -54.3

